molecular target: A1 receptor (Mesocricetus auratus); construct: endogenous in cells; host or cells: DDT1 (DDT1 MF-2) hamster vas deferens smooth muscle cells; assay: Competitive binding assay, DDT1 cell membranes, [3H]CCPA; parameters: species or system hamster; details: [3H]CCPA 2 nM, in presence of Gpp(NH)p (low affinity form); read-out: Ki - DDT1 cell membrane In presence of Gpp (NH)p
Each record here notes measured pKi.
Please keep in mind that pKi is minus log10 of the molar concentration; only the number is needed.

Here are 3 compounds together with their reported answers.
[
  {
    "compound": "CCNC(=S)OC[C@H]1O[C@@H](n2cnc3c(N[C@@H]4CCOC4)ncnc32)[C@H](O)[C@@H]1O",
    "pKi": 6.87
  },
  {
    "compound": "CCCNC(=O)OCC1OC(n2cnc3c(N[C@@H]4CCOC4)ncnc32)C(O)C1O (stereo partly shown)",
    "pKi": 6.29
  },
  {
    "compound": "C=CCNC(=S)OCC1OC(n2cnc3c(N[C@@H]4CCOC4)ncnc32)C(O)C1O (stereo partly shown)",
    "pKi": 6.62
  }
]

Shifting focus to the compound that follows.
Please report the recorded pKi for CC(C)NC(=S)OC[C@H]1O[C@@H](n2cnc3c(N[C@@H]4CCOC4)ncnc32)[C@H](O)[C@@H]1O .
6.96

* * *

molecular target: A1 adenosine receptor (Mesocricetus auratus, UniProt A0A1U8BVR4); construct: endogenous in cells; host or cells: DDT1 (DDT1 MF-2) hamster vas deferens smooth muscle cells; assay: [35S]GTPγS binding assay, A1-agonist stimulated; format: biochemical, hamster; details: agonist stimulated [35S]GTPγS binding, CPA = 100%
readout kind: GTPγS (%)
Hi! Could you send only the number? It should be in %, unit omitted.

Here are 4 compounds together with their reported answers.
[
  {
    "compound": "O=C(NC1CCCC1OCc1ccccc1)OCC1OC(n2cnc3c(N[C@@H]4CCOC4)ncnc32)C(O)C1O (some centres unmarked) [Compound 37]",
    "result units": "%",
    "GTPγS": 30
  },
  {
    "compound": "O=C(NC1CCCC1OCc1ccccc1)OCC1OC(n2cnc3c(N[C@@H]4CCOC4)ncnc32)C(O)C1O (some centres unmarked) [Compound 38]",
    "result units": "%",
    "GTPγS": 1
  },
  {
    "compound": "OC1CCCC1NC(=S)OCC1OC(n2cnc3c(N[C@@H]4CCOC4)ncnc32)C(O)C1O (some centres unmarked)",
    "result units": "%",
    "GTPγS": 99
  },
  {
    "compound": "OC1C(COC(=S)NC2CCCC2OCc2ccccc2)OC(n2cnc3c(N[C@@H]4CCOC4)ncnc32)C1O (some centres unmarked)",
    "result units": "%",
    "GTPγS": 52
  }
]

Find GTPγS (A1 adenosine receptor (Mesocricetus auratus, UniProt A0A1U8BVR4)) for the entry O[C@@H]1[C@H](O)[C@@H](COC(=S)N2CCCC2)O[C@H]1n1cnc2c(N[C@@H]3CCOC3)ncnc21
77

* * *

Target: A1 receptor (Mesocricetus auratus)
Construct: endogenous in cells; host or cells: DDT1 (DDT1 MF-2) hamster vas deferens smooth muscle cells
Sequence (A0A1U8BVR4 1-326): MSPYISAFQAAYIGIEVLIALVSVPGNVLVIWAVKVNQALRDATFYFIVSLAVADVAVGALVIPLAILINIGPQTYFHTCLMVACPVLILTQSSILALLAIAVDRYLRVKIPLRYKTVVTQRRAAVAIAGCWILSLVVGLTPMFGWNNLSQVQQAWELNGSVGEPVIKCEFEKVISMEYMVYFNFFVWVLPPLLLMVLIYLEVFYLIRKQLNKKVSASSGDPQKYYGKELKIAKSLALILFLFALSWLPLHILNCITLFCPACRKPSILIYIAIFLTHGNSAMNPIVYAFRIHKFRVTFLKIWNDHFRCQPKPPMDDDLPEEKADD
Experiment: Competitive binding assay, DDT1 cell membranes, [3H]CCPA
Parameters: species or system hamster
Conditions: [3H]CCPA 2 nM, DDT1 cell membranes; read-out: Ki-DDT1 cell membrane
readout kind: Ki (µM)
Hi! Could you send only the number? It should be in µM, unit omitted.

Here are 4 compounds together with their reported answers.
[
  {
    "compound": "CNC(=O)OC[C@H]1O[C@@H](n2cnc3c(N[C@@H]4CCOC4)ncnc32)[C@H](O)[C@@H]1O",
    "readout kind": "Ki",
    "result units": "µM",
    "reading": 0.178
  },
  {
    "compound": "OC1C(COC(=S)NC2CCCCC2)OC(n2cnc3c(N[C@@H]4CCOC4)ncnc32)C1O (stereo partly shown)",
    "readout kind": "Ki",
    "result units": "µM",
    "reading": 0.252
  },
  {
    "compound": "CNC(=O)OC[C@H]1O[C@@H](n2cnc3c(N[C@@H]4CCOC4)nc(Cl)nc32)[C@H](O)[C@@H]1O",
    "readout kind": "Ki",
    "result units": "µM",
    "reading": 0.129
  },
  {
    "compound": "CNC(=S)NC[C@H]1O[C@@H](n2cnc3c(N[C@@H]4CCOC4)ncnc32)[C@H](O)[C@@H]1O",
    "readout kind": "Ki",
    "result units": "µM",
    "reading": 0.113
  }
]

Please report the recorded Ki for O=C(NC[C@H]1O[C@@H](n2cnc3c(N[C@@H]4CCOC4)ncnc32)[C@H](O)[C@@H]1O)NC1CCCC1 .
11.6

Please report the recorded Ki for O=C(NCc1ccc(F)cc1)OCC1OC(n2cnc3c(N[C@@H]4CCOC4)ncnc32)C(O)C1O (stereo partly shown) .
2.21

Please report the recorded Ki for C=CCNC(=O)OC[C@H]1O[C@@H](n2cnc3c(N[C@@H]4CCOC4)ncnc32)[C@H](O)[C@@H]1O .
0.668

// provenance: patent US20020037872A1
